- Test system: Malme-3M
- Test method notes: NCI tumour cell line growth inhibition, 48 h
The source made the active and inactive calls. Rule as the data show it: active = GI50 up to about 1.1 µM and inactive = higher.
For each entry below, report its GI50 value.

Lookup result for Cc1ccc(/C=N/Nc2ccc3ccccc3n2)s1 ; measured GI50: 14.9 µM (inactive)

Lookup result for CN(C)c1ccc(/C=N/NC(=O)c2cnc3ccccc3c2)cc1 ; measured GI50: 18.6 µM (inactive)

Lookup result for O=[N+]([O-])c1ccc(C2Nn3c(nnc3-c3cccc([N+](=O)[O-])c3)S2)cc1 (stereo not drawn) ; measured GI50: > 100 µM (inactive)

---

- Test system: DU-145
- Test method notes: NCI tumour cell line growth inhibition, 48 h
Calls of active or inactive are those of the source. Rule as the data show it: active = GI50 up to about 1.1 µM and inactive = higher. Where a SMILES comes first, the peptide text is derived from it. The star is where a group is joined. Boc = CC(C)(C)OC(=O)*; OBn = c1ccc(CO*)cc1
For each entry below, report its GI50 value.

Lookup result for NC(CCC(=O)NC(CSC(=O)N(O)c1ccc(Cl)cc1)C(=O)NCC(=O)O)C(=O)O (stereo not given) ; measured GI50: > 0.5 µM (active)

Lookup result for Nc1cccc(Nc2nc3ccccc3nc2NS(=O)(=O)c2ccccc2)c1 ; measured GI50: 31.5 µM (inactive)

Lookup result for O=C(OCC(OC(=O)c1ccccc1)C1CC(C(O)C2CCCCC2)C(=O)O1)c1ccccc1 (stereo not given) ; measured GI50: > 100 µM (inactive)

Lookup result for O=C1c2ccccc2CC12Cc1ccccc1C2 ; measured GI50: 86.3 µM (inactive)

Lookup result for CC(C)CC(NC(=O)C(Cc1ccccc1)NC(=O)C(Cc1ccccc1)NC(=O)OC(C)(C)C)C(=O)OCc1ccccc1 (stereo not drawn) (Boc-Phe-Phe-Leu-OBn; configuration not given here) ; measured GI50: > 100 µM (inactive)

Lookup result for CCCN1CN(c2ccccc2)C2(CCN(CCCC(=O)c3ccc(F)cc3)CC2)C1=O ; measured GI50: 1.53 µM (inactive)

Lookup result for Cc1ccc(NC(=O)CSc2nc(O)nc3[nH]cnc23)cc1 ; measured GI50: > 100 µM (inactive)

Lookup result for COc1cc2c(cc1OC)C(=O)N(c1ccc(OCCN3CCCC3)cc1)C2 ; measured GI50: > 100 µM (inactive)

Lookup result for COc1ccc(/C=C2\N=C(SC)N(C)C2=O)cc1 ; measured GI50: > 100 µM (inactive)

Lookup result for C=C(C1=CC(=O)C(C)(C)O1)[C@@H]1CC=C([C@@H]2CC[C@H]3[C@@]2(C)CC[C@H]2C(C)(C)C(=O)[C@H](O)C[C@]32C)[C@H](O)O1 ; measured GI50: 1.03 µM (active)

Lookup result for CCN(CC)CCn1ncc2c(N)ncnc21 ; measured GI50: > 100 µM (inactive)

Lookup result for NC1=Nc2ccccc2Sc2cccc(F)c21 ; measured GI50: > 100 µM (inactive)

Lookup result for CNC(=S)N/N=C/c1cccc(C)n1 ; measured GI50: 28.8 µM (inactive)

Lookup result for CC1(C)CCC2(C(=O)OC3OC(CO)C(O)C(O)C3O)CCC3(C)C(=CCC4C5(C)CCC(OC6OC(CO)C(O)C(O)C6O)C(C)(C)C5CCC43C)C2C1 (stereo not given) ; measured GI50: > 25 µM (inactive)

Lookup result for CC(NNC(=O)c1ccc[n+]([BH2-]C#N)c1)c1ccccc1 (stereo not given) ; measured GI50: > 100 µM (inactive)

Lookup result for CC(C)/C=N\N1C(N)=C(C#N)C(C#N)(C#N)C1C(C)C (stereo not given) ; measured GI50: 40 µM (inactive)

Lookup result for CN/N=C(\C)C(CN(C)C)C(c1ccccc1)c1c(O)c2ccccc2oc1=O (stereo not given) ; measured GI50: > 100 µM (inactive)

Lookup result for COc1ccc(-n2c3c(c4cc(O)ccc42)Cc2ccccc2C3=O)cc1 ; measured GI50: > 100 µM (inactive)

Lookup result for COc1cc(CNc2nc3ccccc3nc2C(=O)O)cc(OC)c1OC ; measured GI50: > 100 µM (inactive)

Lookup result for CC1(c2ccccc2)N=c2[nH]cnc2=C(C(N)=O)N1 (stereo not given) ; measured GI50: > 100 µM (inactive)

Lookup result for C[C@]12CCC(=O)C(O)=C1CC[C@@H]1[C@@H]2CC[C@]2(C)C(=O)CC[C@@H]12 [FORMESTANE] ; measured GI50: > 100 µM (inactive)

Lookup result for CC1OC(OC2C(O)COC(OC3C(C)OC(OC4C(OC(=O)[C@]56CCC(C)(C)C[C@@H]5C5=CCC7[C@@]8(C)C[C@H](O)[C@H](OC9OC(CO)C(O)C(OC%10OC(CO)C(O)C(O)C%10O)C9O)[C@@](C)(CO)[C@@H]8CC[C@@]7(C)[C@]5(C)CC6)OCC(O)C4O)C(O)C3OC3OCC(O)(CO)C3O)C2O)C(O)C(O)C1O (stereo not given in full) ; measured GI50: 8.28 µM (inactive)

Lookup result for N#CCCN(CCC#N)c1ccc(/C=C2\SC(=S)NC2=O)cc1Br ; measured GI50: > 100 µM (inactive)

Lookup result for CCCSc1ccc2[nH]c(/N=C/c3ccccc3)cc2c1 ; measured GI50: 30.5 µM (inactive)

Lookup result for COc1ccc2[nH]cc(CCNC(=O)[C@H](Cc3ccc(O)cc3)NC(=O)[C@@H](NCC(F)(F)F)C(C)C)c2c1 ; measured GI50: > 100 µM (inactive)
